Target: T1, cynomolgus monkey CD137 (cynomolgus monkey, UniProt Q07011 24-186 (human entry), limits assumed)
T1 construct: Soluble analyte in the Biacore assay; also called cyno CD137
T1 chain: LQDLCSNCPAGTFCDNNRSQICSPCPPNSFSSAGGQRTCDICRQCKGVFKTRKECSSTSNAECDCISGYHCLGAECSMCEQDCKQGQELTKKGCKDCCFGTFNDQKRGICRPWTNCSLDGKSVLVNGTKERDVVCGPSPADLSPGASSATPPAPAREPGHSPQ
Test: SPR Biacore T200, IgG captured on protein A, antigen as analyte, 25 C;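 note: antigens flowed over a CM3 chip for 120 s association, KD derived from ka and kd, running buffer (ACES, NaCl, Tween20, pH 7.4) served as blank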
Checkbox rule: kon lower than 800 M⁻¹ s⁻¹ = fulfilled; kon not lower than 800 M⁻¹ s⁻¹ = not fulfilled.

Binder | Assigned label
dBBDu_183 / dBBDu_L067 (antibody, human IgG1, V domains shown, Tested as IgG (human IgG1 constant region, kappa light chain); also called dBBDu183/L067) VH: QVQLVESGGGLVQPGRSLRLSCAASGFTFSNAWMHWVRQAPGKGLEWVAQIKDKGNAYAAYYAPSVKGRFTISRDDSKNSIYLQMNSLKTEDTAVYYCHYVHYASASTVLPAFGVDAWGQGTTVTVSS VL: DIVMTQSPLSLPVTPGEPASISCQSSESLVHVNRHTYLHWYQQKPGQAPRLLIYKVYNRFPGVPDRFSGSGSGTDFTLKISRVEAEDVGVYYCAQGTSVPFTFGQGTKLEIK | not fulfilled
dBBDu_193 / dBBDu.L127 (antibody, human IgG1, V domains shown, Tested as IgG (human IgG1 constant region, kappa light chain); also called dBBDu193/L127; dBBDu_193/L127) VH: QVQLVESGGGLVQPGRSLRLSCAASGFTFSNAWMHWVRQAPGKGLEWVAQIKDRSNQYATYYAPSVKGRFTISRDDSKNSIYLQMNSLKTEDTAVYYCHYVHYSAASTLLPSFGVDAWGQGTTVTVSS VL: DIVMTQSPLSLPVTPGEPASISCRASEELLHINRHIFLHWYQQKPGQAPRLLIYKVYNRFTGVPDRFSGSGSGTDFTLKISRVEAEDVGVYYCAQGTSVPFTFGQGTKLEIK | fulfilled
dBBDu_189 / dBBDu_L116 (antibody, human IgG1, V domains shown, Tested as IgG (human IgG1 constant region, kappa light chain); also called dBBDu189/L116) VH: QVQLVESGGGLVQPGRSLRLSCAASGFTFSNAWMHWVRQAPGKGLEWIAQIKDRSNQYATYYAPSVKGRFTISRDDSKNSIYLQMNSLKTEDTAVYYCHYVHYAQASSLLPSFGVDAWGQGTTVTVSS VL: DIVMTQSPLSLPVTPGEPASISCSSSQELVHANRQIYLHWYQQKPGQAPRLLIYKVANRFPGVPDRFSGSGSGTDFTLKISRVEAEDVGVYYCAQGTQVPFTFGQGTKLEIK | fulfilled
dBBDu_183 / dBBDu_L072 (antibody, human IgG1, V domains shown, Tested as IgG (human IgG1 constant region, kappa light chain); also called dBBDu183/L072; H183L072) VH: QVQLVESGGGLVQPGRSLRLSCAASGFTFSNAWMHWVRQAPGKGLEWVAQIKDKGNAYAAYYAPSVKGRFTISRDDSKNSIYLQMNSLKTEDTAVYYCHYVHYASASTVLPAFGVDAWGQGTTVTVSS VL: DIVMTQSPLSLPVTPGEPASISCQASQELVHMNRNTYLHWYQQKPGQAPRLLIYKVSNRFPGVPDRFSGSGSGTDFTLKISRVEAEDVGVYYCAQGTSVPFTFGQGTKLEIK | not fulfilled
